Measurement target: GABA transporter (Mus musculus) (UniProt P31650+P31651+P31649+P31648)
Assay info: Ratio for ED50 values for inhibition of rotarod to inhibition of DMCM-induced convulsions in mice
Format: functional
Measure: Protective index
Just the number, please, no unit attached.

Solved cases (3 shown):
Return reported Protective index; argument: Cl.O=C(O)[C@@H]1CCCN(CCOCCN2c3ccccc3Sc3ccccc32)C1
1.8

Same thing, different compound: Cl.O=C(O)[C@@H]1CCCN(CCOCCN2c3ccccc3CCc3ccccc32)C1
5.7

Same thing, different compound: Cl.O=C(O)CC1CCN(CCOCCN2c3ccccc3CCc3ccccc32)C1 (stereo not given)
3.2

# evaluate next
Return reported Protective index; argument: Cl.O=C(O)[C@@H]1CCCN(CCOCCN(c2ccccc2)c2ccccc2)C1
1.6

----------
Let's look at some compounds and their measured Protective index.
Measurement target: GABA transporter (Mus musculus) (UniProt P31650+P31651+P31649+P31648)
Assay info: Ratio for ED50 values for inhibition of rotarod to inhibition of DMCM-induced convulsions in mice
Type: functional
Just the number, please, no unit attached.

Return reported Protective index; argument: Cl.O=C(O)[C@@H]1CCCN(CCON=C2c3cc(Cl)ccc3CCc3ccc(Cl)cc32)C1
1.1

# evaluate next
Return reported Protective index; argument: Cl.O=C(O)[C@@H]1CCCN(CCOCCC(c2ccccc2)c2ccccc2)C1
5.3

----------
Let's look at some molecules and their measured IC50.
Measurement target: GABA transporter (Rattus norvegicus, UniProt P31647+P23978+P31646+P48056)
Assay info: In vitro inhibition of [3H]GABA uptake in rat synaptosomes was determined
Assay type: functional, subcellular, Brain

Solved cases (5 shown):
Return reported IC50; argument: Cl.O=C(O)[C@@H]1CCCN(CCOCCCN2c3ccccc3CCc3ccccc32)C1
696 nM

Same thing, different molecule: Cl.O=C(O)[C@@H]1CCCN(CCON=C2c3ccccc3CCc3ccccc32)C1
1161 nM

Same thing, different molecule: Cl.O=C(O)[C@@H]1CCCN(CCOCCN2c3cc(Cl)ccc3CCc3ccc(Cl)cc32)C1
68 nM

Same thing, different molecule: Cl.O=C(O)[C@@H]1CCCN(CCON=C(c2ccccc2)c2ccccc2)C1
82 nM

Same thing, different molecule: Cl.O=C(O)[C@@H]1CCCN(CCOCCN2c3ccccc3CCc3ccc(F)cc32)C1
265 nM

***
Return reported IC50; argument: Cl.O=C(O)[C@@H]1CCCN(CCOCCn2c3ccccc3c3ccccc32)C1
> 40000 nM

Same thing, different molecule: Cl.O=C(O)[C@@H]1CCCN(CCOCCC(c2ccccc2)c2ccccc2)C1
55 nM

Same thing, different molecule: Cl.O=C(O)[C@H]1CCCN(CCOC/C=C2\c3ccccc3CCc3ccc(Cl)cc32)C1
2495 nM

Same thing, different molecule: Cl.O=C(O)[C@@H]1CCCN(CCOCCN2c3ccccc3Sc3ccccc32)C1
308 nM

Same thing, different molecule: Cl.O=C(O)[C@@H]1CCCN(CCOCCN2c3ccccc3CCc3ccccc32)C1
184 nM

----------
Let's look at some molecules and their measured ED50.
Measurement target: GABA transporter (Mus musculus) (UniProt P31650+P31651+P31649+P31648)
Assay info: In vivo anticonvulsant effect measured as rotarod in mice after ip administration
Format: functional, organism-based

Solved cases (6 shown):
Return reported ED50; argument: Cl.O=C(O)[C@H]1CCCN(CCOC/C=C2\c3ccccc3CCc3ccc(Cl)cc32)C1
> 60 mg/kg

Same thing, different molecule: Cl.O=C(O)[C@@H]1CCCN(CCON=C2c3cc(Cl)ccc3CCc3ccc(Cl)cc32)C1
40 mg/kg

Same thing, different molecule: Cl.O=C(O)[C@@H]1CCCN(CCOCCN2c3ccccc3Sc3ccccc32)C1
54 mg/kg

Same thing, different molecule: Cl.O=C(O)[C@@H]1CCCN(CCOCCN2c3ccccc3Sc3ccc(C(F)(F)F)cc32)C1
> 60 mg/kg

Same thing, different molecule: Cl.O=C(O)[C@@H]1CCCN(CCON=C2c3ccccc3CCc3ccccc32)C1
> 100 mg/kg

Same thing, different molecule: Cl.O=C(O)C1=CCCN(CCOCCN2c3ccccc3CCc3ccccc32)C1
21 mg/kg

# evaluate next
Return reported ED50; argument: Cl.O=C(O)[C@H]1CCCN(CCOCC=C2c3ccccc3CCc3ccccc32)C1
> 100 mg/kg
